The reported numbers originate from paper PMC7854593.

Molecular target: CMD1 (UniProt A0A2K3D5Z7 1-532)
Sequence (A0A2K3D5Z7 whole entry): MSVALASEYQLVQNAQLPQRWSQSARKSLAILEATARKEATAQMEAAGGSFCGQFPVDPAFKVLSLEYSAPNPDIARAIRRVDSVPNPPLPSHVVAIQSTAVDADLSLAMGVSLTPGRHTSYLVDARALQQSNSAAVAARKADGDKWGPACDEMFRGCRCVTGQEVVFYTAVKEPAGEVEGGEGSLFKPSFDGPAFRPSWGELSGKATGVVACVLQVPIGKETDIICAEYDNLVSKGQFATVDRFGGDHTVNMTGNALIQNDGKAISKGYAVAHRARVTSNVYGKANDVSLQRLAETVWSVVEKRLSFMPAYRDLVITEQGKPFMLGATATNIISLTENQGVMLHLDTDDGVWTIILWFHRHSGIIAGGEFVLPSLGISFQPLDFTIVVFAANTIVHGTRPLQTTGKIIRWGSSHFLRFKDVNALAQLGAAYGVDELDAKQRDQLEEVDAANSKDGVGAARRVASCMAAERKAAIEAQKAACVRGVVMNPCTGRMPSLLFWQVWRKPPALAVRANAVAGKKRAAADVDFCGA
Assay: BLI; range over six structured DNAs; BLI: 20 mM Tris-HCl pH 8.0, 50 mM NaCl, 0.1% Tween-20, 0.5% BSA, 25 C; biotin-DNA on streptavidin sensors, 1:1 fit
Conditions: protein: recombinant; tags: His6-SUMO, cleaved with ULP1; label: 5'-biotin; bubble
pKd: −log10 of the molar value.
value kind: pKd

# input binder: bubble DNA (structured_DNA) DNA 1: GCTTTAACTTACATACCCCCCCCCCTAGTATGCGTATTGC DNA 2: GCAATACGCATACTATTTTTTTTTTTATGTAAGTTAAAGC ; wanted: its pKd ~5.86
